tested on: Trichostrongylus columbriformis; assay: In vivo efficacy against T. colubriformis in infected gerbils; settings: gerbils infected with T. colubriformis; single oral dose of 50 mg/kg by gavage; worm counts four days post-treatment; % mortality as compared to negative control
experimental readout: Mortality (%)
Your answer should be a plain number; it is taken to be in %.

The compound O=C1O/C(=C\c2cccc3ccccc23)C(O)=C1c1ccc(Cl)cc1 [R=H; R1=4-Cl—C6H4; R2=1-naphthyl] showed Mortality equal to 0.00

The compound N#Cc1ccc(C2=C(O)C(=Cc3ccccc3C(F)(F)F)OC2=O)cc1 [R=H; R1=4-CN—C6H4; R2=2-CF3—C6H4] showed Mortality equal to 69.78

The compound N#Cc1ccc(C=C2OC(=O)C(c3cccc(Cl)c3)=C2O)cc1 (mixture of isomers) [R=H; R1=3-Cl—C6H4**; R2=4-CN—C6H4] showed Mortality equal to 43.70

The compound N#Cc1ccc(-c2ccc(C=C3OC(=O)C(c4ccc(F)cc4)=C3O)cc2)cc1 (mixture of isomers) showed Mortality equal to 31.80

The compound O=C1O/C(=C\c2cccc3ccccc23)C(O)=C1c1ccc2ccccc2c1 [R=H; R1=2-naphthyl; R2=1-naphthyl] showed Mortality equal to 36.10

The compound N#Cc1ccc(/C=C2\OC(=O)C(c3ccc(C#N)cc3)=C2O)cc1 [R=H; R1=4-CN—C6H4; R2=4-CN—C6H4] showed Mortality equal to 62.43

The compound COc1ccc(C2=C(O)C(=Cc3ccc(-c4ccccc4)cc3)OC2=O)cc1 [R=H; R1=4-OCH3—C6H4; R2=4-biphenyl] showed Mortality equal to 44.90

The compound O=C1OC(=Cc2ccc(OC(F)(F)F)cc2)C(O)=C1c1ccc(F)cc1 (mixture of isomers) [R=H; R1=4-F—C6H4**; R2=4-OCF3—C6H4] showed Mortality equal to 51.60

The compound O=C1OC(=Cc2ccc(OC(F)F)cc2)C(O)=C1c1ccc(OC(F)(F)F)cc1 (mixture of isomers) [R=H; R1=4-OCF3—C6H4**; R2=4-OCHF2—C6H4] showed Mortality equal to 44.20

The compound O=C1OC(=Cc2cnccc2-c2cccs2)C(O)=C1c1ccc(OC(F)(F)F)cc1 (mixture of isomers) showed Mortality equal to 12.80

The compound O=C1OC(=Cc2ccc(C(F)(F)F)cc2)C(O)=C1c1ccc(-c2ccccc2)cc1 [R=H; R1=4-biphenyl; R2=4-CF3—C6H4] showed Mortality equal to 0.00

The compound O=C1O/C(=C\c2ccc(Cl)cc2)C(O)=C1c1ccc(-c2ccccc2)cc1 [R=H; R1=4-biphenyl; R2=4-Cl—C6H4] showed Mortality equal to 44.70

The compound O=C1OC(=Cc2ccc(F)cc2)C(O)=C1c1ccc(Cl)cc1 (mixture of isomers) [R=H; R1=4-Cl—C6H4**; R2=4-F—C6H4] showed Mortality equal to 72.60

The compound O=C1OC(=Cc2ccc(-c3ccc(Cl)cc3)cc2)C(O)=C1c1ccc(F)cc1 (mixture of isomers) showed Mortality equal to 1.60

The compound O=C1O/C(=C\c2cc(F)cc(C(F)(F)F)c2)C(O)=C1c1cccc(-c2ccccc2)c1 [R=H; R1=3-biphenyl; R2=3-F-5-CF3—C6H4] showed Mortality equal to 0.00

The compound O=C1O/C(=C\c2ccc(-c3ccccc3)cc2)C(O)=C1c1cccc2ccccc12 [R=H; R1=1-naphthyl; R2=4-biphenyl] showed Mortality equal to 18.50

The compound N#Cc1ccc(-c2ccc(C=C3OC(=O)C(c4cccc(Cl)c4)=C3O)cc2)cc1 (mixture of isomers) showed Mortality equal to 32.00

The compound O=C1OC(=Cc2ccccn2)C(O)=C1c1ccc(OC(F)(F)F)cc1 (mixture of isomers) [R=H; R1=4-OCF3—C6H4**; R2=pyridine-2-yl] showed Mortality equal to 0.00

The compound O=C1OC(=Cc2ccc(Cl)s2)C(O)=C1c1ccc(OC(F)(F)F)cc1 (mixture of isomers) showed Mortality equal to 26.10

The compound CCCOc1ccc(C=C2OC(=O)C(c3ccc(OC(F)(F)F)cc3)=C2O)cc1 (mixture of isomers) showed Mortality equal to 10.40

The compound O=C1O/C(=C\c2ccc(-c3ccccc3)cc2)C(O)=C1c1ccccc1C(F)(F)F [R=H; R1=2-CF3—C6H4; R2=4-biphenyl] showed Mortality equal to 20.20

The compound O=C1O/C(=C\c2ccccc2C(F)(F)F)C(O)=C1c1ccc(-c2ccccc2)cc1 [R=H; R1=4-biphenyl; R2=2-CF3—C6H4] showed Mortality equal to 23.90

The compound O=C1O/C(=C\c2ccccc2)C(O)=C1c1ccccc1C(F)(F)F [R=H; R1=2-CF3—C6H4; R2=C6H5] showed Mortality equal to 34.60

The compound Cc1cc(/C=C2\OC(=O)C(c3cccc(Cl)c3)=C2O)ccc1-c1ccccc1Cl showed Mortality equal to 16.90

The compound N#Cc1ccc(C2=C(O)C(=Cc3cccc(C(F)(F)F)c3)OC2=O)cc1 (mixture of isomers) [R=H; R1=4-CN—C6H4**; R2=3-CF3—C6H4] showed Mortality equal to 50.00

The compound O=C1O/C(=C\c2ccc(-c3ccccc3)cc2)C(O)=C1c1ccc(Cl)cc1 [R=H; R1=4-Cl—C6H4; R2=4-biphenyl] showed Mortality equal to 33.10

The compound O=C1O/C(=C\c2ccc(-c3ccccc3)cc2)C(O)=C1c1cc(C(F)(F)F)cc(C(F)(F)F)c1 [R=H; R1=3,5-diCF3—C6H3; R2=4-biphenyl] showed Mortality equal to 60.80

----------
Please go through the items and note down their MurD IC50.
target: E. coli Uridine-diphosphate-N-acetylmuramoyl-L-alanine: D-glutamate liease, MurD (Escherichia coli, UniProt P14900); experiment: biochemical; settings: (E) E. coli enzyme
Sequence (P14900 whole entry): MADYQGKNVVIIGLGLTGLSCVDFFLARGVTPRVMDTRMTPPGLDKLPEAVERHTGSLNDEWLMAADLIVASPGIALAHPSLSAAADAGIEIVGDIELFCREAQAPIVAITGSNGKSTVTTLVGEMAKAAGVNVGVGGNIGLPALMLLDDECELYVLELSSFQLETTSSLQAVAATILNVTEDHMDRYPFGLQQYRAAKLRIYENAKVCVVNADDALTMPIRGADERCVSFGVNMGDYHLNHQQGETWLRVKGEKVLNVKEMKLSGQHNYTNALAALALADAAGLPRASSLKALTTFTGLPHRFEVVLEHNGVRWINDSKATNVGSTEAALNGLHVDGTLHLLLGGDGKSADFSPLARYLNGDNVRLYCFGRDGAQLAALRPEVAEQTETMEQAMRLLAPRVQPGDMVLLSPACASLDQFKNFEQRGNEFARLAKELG
Your answer should be a plain number; it is taken to be in µg/mL.

The molecule N#Cc1ccc(C2=C(O)/C(=C/c3ccc(-c4ccc(C#N)cc4)cc3)OC2=O)cc1 [R=H, R1=4-CN—C6H4, R2=4-(4′-CN-biphenyl)] showed MurD IC50 equal to 5

The molecule O=C1O/C(=C\c2ccc(-c3cccc(C(F)(F)F)c3)cc2)C(O)=C1c1cccc(C(F)(F)F)c1 showed MurD IC50 equal to 24

The molecule O=C1O/C(=C\c2cccc(-c3cccc(Cl)c3)c2)C(O)=C1c1cccc(Cl)c1 [Example 134] showed MurD IC50 equal to 6

The molecule O=C1O/C(=C\c2ccc(-c3cc(Cl)cc(Cl)c3)cc2)C(O)=C1c1cc(Cl)cc(Cl)c1 showed MurD IC50 equal to 6

The molecule O=C1OC(=Cc2ccc(-c3ccccc3)cc2)C(O)=C1c1cccc(C(F)(F)F)c1 (mixture of isomers) [Example 11] showed MurD IC50 equal to 21

----------
test system: larvae of blowfly, Lucilia sericata; assay: whole plant or invertebrate; conditions: dose rate of 20 ppm; Lucilia sericata larvae on treated filter paper with bovine serum; assessed at 48 h
Mark Condition met only for % Mortality 48 h values smaller than 10%; exact matches and larger values are Condition not met.

Strictly below 10% in % Mortality 48 h? O=C1OC(=Cc2ccc(Cl)cc2)C(O)=C1c1ccc(F)cc1 (mixture of isomers) [R=H, R1=4-F—C6H4**, R2=4-Cl—C6H4] Condition met

Strictly below 10% in % Mortality 48 h? O=C1OC(=Cc2ccc(C(F)(F)F)cc2)C(O)=C1c1ccc(C(F)(F)F)cc1 (mixture of isomers) [R=H, R1=4-CF3—C6H4**, R2=4-CF3—C6H4] Condition not met

Strictly below 10% in % Mortality 48 h? N#Cc1ccc(C=C2OC(=O)C(c3ccc(C(F)(F)F)cc3)=C2O)cc1 (mixture of isomers) [R=H, R1=4-CF3—C6H4**, R2=4-CN—C6H4] Condition not met

Strictly below 10% in % Mortality 48 h? O=C1O/C(=C\c2cccc3ccccc23)C(O)=C1c1cccc(CO)c1 [R=H, R1=3-CH2OH—C6H4, R2=1-naphthyl] Condition met

Strictly below 10% in % Mortality 48 h? O=C1O/C(=C\c2ccc(-c3cccc(CO)c3)cc2)C(O)=C1c1cccc(CO)c1 Condition met

Strictly below 10% in % Mortality 48 h? O=C1OC(=Cc2ccc(-c3ccc(Cl)cc3)cc2)C(O)=C1c1cccc(Cl)c1 (mixture of isomers) Condition met

Strictly below 10% in % Mortality 48 h? O=C1OC(=Cc2ccc(Cl)cc2)C(O)=C1c1cccc(Cl)c1 (mixture of isomers) [R=H, R1=3-Cl—C6H4**, R2=4-Cl—C6H4] Condition met

Strictly below 10% in % Mortality 48 h? N#Cc1ccc(C=C2OC(=O)C(c3ccc(Cl)cc3)=C2O)cc1 (mixture of isomers) [R=H, R1=4-Cl—C6H4**, R2=4-CN—C6H4] Condition not met

Strictly below 10% in % Mortality 48 h? N#Cc1ccc(C2=C(O)C(=Cc3ccc(F)cc3)OC2=O)cc1 (mixture of isomers) [R=H, R1=4-CN—C6H4**, R2=4-F—C6H4] Condition met

Strictly below 10% in % Mortality 48 h? CC(=O)Nc1cccc(C2=C(O)/C(=C/c3ccc(-c4cccc(NC(C)=O)c4)cc3)OC2=O)c1 Condition met

Strictly below 10% in % Mortality 48 h? N#Cc1ccc(C2=C(O)C(=Cc3ccc(-c4ccc(C(F)(F)F)cc4)cc3)OC2=O)cc1 (mixture of isomers) Condition not met

Strictly below 10% in % Mortality 48 h? N#Cc1ccc(C2=C(O)C(=Cc3ccc(-c4ccc(Cl)cc4)cc3)OC2=O)cc1 (mixture of isomers) Condition not met

Strictly below 10% in % Mortality 48 h? N#Cc1ccc(-c2ccc(/C=C3\OC(=O)C(c4ccc(Cl)cc4)=C3O)cc2)cc1 [R=H, R1=4-Cl—C6H4*, R2=4-(4′-CN-biphenyl)] Condition not met
